Origin of values: BindingDB's records for PubMed 9353393

- target-or-test-system: UniProtKB P35377
- Sequence (P35377 whole entry): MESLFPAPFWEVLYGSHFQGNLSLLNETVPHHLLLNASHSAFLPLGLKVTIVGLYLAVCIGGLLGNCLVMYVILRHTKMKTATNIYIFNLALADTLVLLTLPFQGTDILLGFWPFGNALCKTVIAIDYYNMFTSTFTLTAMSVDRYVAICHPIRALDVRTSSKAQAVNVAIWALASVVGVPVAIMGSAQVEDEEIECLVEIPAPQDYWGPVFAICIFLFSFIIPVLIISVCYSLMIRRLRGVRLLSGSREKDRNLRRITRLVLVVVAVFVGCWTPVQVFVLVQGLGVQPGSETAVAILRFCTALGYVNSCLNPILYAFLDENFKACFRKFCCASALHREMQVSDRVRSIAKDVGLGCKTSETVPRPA
Residues, ends and D or L forms follow the SMILES beside them.
Label Condition met when Ki is strictly below 0.7 nM; at or above that, label Condition not met.

INPUT: Does this molecule meet the criterion Ki < 0.7 nM? CC(=O)N[C@@H](CCCNC(=N)N)C(=O)N[C@@H](Cc1ccc(O)cc1)C(=O)N[C@@H](Cc1ccc(O)cc1)C(=O)N[C@@H](CCCNC(=N)N)C(=O)N[C@@H](Cc1c[nH]c2ccccc12)C(=O)N[C@@H](CCCN=C(N)N)C(N)=O [Ac-RYYRWR-NH2] (Ac-RYYRWR-NH2)
OUTPUT: Condition met

INPUT: Does this molecule meet the criterion Ki < 0.7 nM? CC(C)C[C@H](NC(=O)[C@H](CCCCN)NC(=O)[C@H](CCCN=C(N)N)NC(=O)[C@H](C)NC(=O)[C@H](CO)NC(=O)[C@H](CCCCN)NC(=O)[C@H](CCCN=C(N)N)NC(=O)[C@H](C)NC(=O)CNC(=O)[C@@H](NC(=O)[C@H](Cc1ccccc1)NC(=O)CNC(=O)CNC(=O)[C@@H](N)Cc1ccccc1)[C@@H](C)O)C(=O)N[C@@H](C)C(=O)N[C@@H](CC(N)=O)C(=O)N[C@@H](CCC(N)=O)C(=O)O [OFQ 1-17]
OUTPUT: Condition met

INPUT: Does this molecule meet the criterion Ki < 0.7 nM? CC(=O)N[C@@H](CCCNC(=N)N)C(=O)N[C@@H](Cc1ccc(O)cc1)C(=O)N[C@@H](Cc1ccc(O)cc1)C(=O)N[C@@H](CCCCN)C(=O)N[C@@H](Cc1c[nH]c2ccccc12)C(=O)N[C@@H](CCCN=C(N)N)C(N)=O [Ac-RYYKWR-NH2] (Ac-RYYKWR-NH2)
OUTPUT: Condition not met

INPUT: Does this molecule meet the criterion Ki < 0.7 nM? CC[C@H](C)[C@H](NC(=O)[C@H](CCCN=C(N)N)NC(=O)[C@H](Cc1ccc(O)cc1)NC(=O)[C@H](Cc1ccc(O)cc1)NC(=O)[C@H](CCCN=C(N)N)NC(C)=O)C(=O)N[C@@H](CCCCN)C(N)=O [CAS_200959-48-4]
OUTPUT: Condition not met
